The compounds listed here are annotated with their pIC50.
test system: 327498-153-R-J2-PDC complex spheroid growth, % test/control; test: Anticancer human tumor 327498-153-R-J2-PDC patient-derived uterine carcinosarcoma cell line growth inhibition [Asc]; details: curve of first compound; second compound 0.316 µM;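 also: spheroids exposed to compound for 7 days after 3 days of growth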
pIC50: −log10 of the molar value.

IN: May I ask what pIC50 has been recorded for Cc1nc(N2CCC3(CC2)COC(C)C3N)c(CO)nc1Sc1ccnc(N)c1Cl (stereo not drawn) + CNC(C)C(=O)NC1CN(S(=O)(=O)c2cccc(S(=O)(=O)N3CCC4CCC(C(=O)NC(c5ccccc5)c5ccccc5)N4C(=O)C(NC(=O)C(C)NC)C3)c2)CCC2CCC(C(=O)NC(c3ccccc3)c3ccccc3)N2C1=O ?
OUT: < 5.52

IN: What do we get for COc1c(OCCCN2CCOCC2)ccc2c3n(c(=NC(=O)c4cnc(N)nc4)nc12)CCN3 + CNC(C)C(=O)NC1CN(S(=O)(=O)c2cccc(S(=O)(=O)N3CCC4CCC(C(=O)NC(c5ccccc5)c5ccccc5)N4C(=O)C(NC(=O)C(C)NC)C3)c2)CCC2CCC(C(=O)NC(c3ccccc3)c3ccccc3)N2C1=O ?
OUT: 6.86

IN: C=CC(=O)N1CCN(c2nc(=O)n(-c3c(C)ccnc3C(C)C)c3nc(-c4c(O)cccc4F)c(F)cc23)C(C)C1 (stereo not drawn) + Cc1c(S(C)(=O)=O)c(-c2cc(F)cc(N3CCN(c4ccc(NS(=O)(=O)c5ccc(NC(CCN6CCC(C(=O)OCCCP(=O)(O)O)CC6)CSc6ccccc6)c(S(=O)(=O)C(F)(F)F)c5)cc4)CC3)c2)c(-c2ccc(Cl)cc2)n1C(C)C ?
OUT: < 5.00
